Tested on: Wolbachia pipientis
METHOD DESCRIPTION: Anti-Wolbachia Cell-Based Screen
Type: functional
Parameters: scale not given: in the data most compounds retested in dose-response had high values
PROTOCOL CONDITIONS: 5 µM
Among all 48,000 compounds or so, about 13,000 (27%) showed an effect of 50% or more. The list shows a part of the results.
MEASURED ENDPOINT: Percent Effect (%)
Hi! Could you send only the number? It should be in %, unit omitted.

Percent Effect lookup needed for CCCc1cc(C(=O)NCCCn2nnc3ccccc32)no1 , thanks. 2.161

What does the record list as Percent Effect for CCCc1nc(C(=O)NC(COC)c2ccnn2C)cs1 (stereo unspecified) ? 113.9

Please look up its Percent Effect: O=C(NC1CC1)[C@H]1C[C@H]2OCC[C@H]2N(Cc2cccc3ccccc23)C1.O=C(O)C(F)(F)F -4.229

Quick one: Percent Effect for Cc1nc(CCNC(=O)C2CC(=O)N(C(C)C)C2)sc1C (stereo unspecified) ? -29.36

Would you mind telling me what Percent Effect value was observed for COCC(Nc1ncnc2sc(C(=O)O)c(C)c12)c1ccnn1C (stereo unspecified) ? 6.074

Fill blank: measured Percent Effect of the compound COCC(Nc1ncnc2sc(C)c(C)c12)c1ccnn1C (stereo unspecified) is ____. -1.475

----------
System: Wolbachia pipientis
METHOD DESCRIPTION: Anti-Wolbachia Cell-Based Screen
Type: functional
Parameters: scale not given: in the data most compounds retested in dose-response had high values
PROTOCOL CONDITIONS: 5 µM
In all, about 48,000 compounds went through this assay and about 13,000 (27%) showed an effect of 50% or more. The list shows a part of the results.
Kindly supply the reported Percent Effect values for the records listed here.
Give the value in % but do not write % after it.

Requested field: Percent Effect. Item: CC(C)Oc1ncccc1CNC(=O)C1CCCN(C(=O)C2CC2)C1 (stereo not given) -12.74

Fill in: Percent Effect of Cc1c(Br)cccc1CNC1(CCO)CCOCC1 is ___ -8.762

# lookup: Percent Effect of CC(C)C(=O)N1CCC2(CN(CC3CCCC3)C2)C1.O=C(O)C(F)(F)F -3.433

Given the entry CC(C)CN1CC[C@@H]2[C@H](CC1)N(C(=O)c1ccccc1)CCS2(=O)=O.O=C(O)C(F)(F)F , report its measured Percent Effect. -7.451

What measured Percent Effect goes with COC(=O)c1ccc(N2CCN(CCC(=O)NC(N)=O)C(C)C2)cc1 (stereo not given) ? 4.115

----------
System: Wolbachia pipientis
METHOD DESCRIPTION: Anti-Wolbachia Cell-Based Screen
Assay type: functional
Design: scale not given: in the data most compounds retested in dose-response had high values
PROTOCOL CONDITIONS: 5 µM
Screen size: about 48,000 compounds; about 13,000 (27%) showed an effect of 50% or more. Some of the results follow.
Hi there, I'd appreciate the recorded Percent Effect for every entry that follows.
Give your result in % as a bare value.

What value of Percent Effect has been recorded for this entry: Cc1[nH]c(=O)[nH]c(=O)c1CC(=O)N1CCC(Oc2ccc(F)cc2)CC1 -20.3

// query Percent Effect value for entry CCOCc1ccc(NC(=O)NC2CCCn3nc(CC)nc32)cc1 (configuration not stated) -7.286

Bench note: what Percent Effect did Cc1ncsc1CN1CC(C)(C2CC2)CC1=O (configuration not stated) show? -4.839

Consider the compound shown here: CCn1cc(NC(=O)CN2CCC(Oc3ccc(F)cc3)CC2)c(C)n1.Cl What is its recorded Percent Effect? 113.2

For the compound Cn1cc(S(=O)(=O)NCC2CCN(C(=O)c3ccoc3)CC2)cn1 , what Percent Effect is on record? -16.26

Data request, read-out Percent Effect, for N#Cc1ccc(OC2CCN(CC(=O)NCC(F)(F)F)CC2)cc1 6.533

Percent Effect for CC(=O)c1cccc(CN2CC(Oc3ccccc3C)C2)c1 ? 6.758
